Attribution: PubChem BioAssay

assay: HepG2 liver cancer cell viability effects, profiling panel, resazurin fluorescence, 24 h, PK04 Diversity Set (AID 1172); details: higher = more signal; also: test concentration not given here
MEASURED_QUANTITY: z-score
Quick one: just the number, no unit, thanks!

Examples with their reported z-score follow.
# COMPOUND, z-score
measured = [
    ("CC(c1ccccc1)C(O)C1C=CC2C(=O)NC(=O)C2N1Nc1ccccn1 (centres undefined)", -0.987),
    ("CC(C)N1C(=O)C[C@@](C(=O)NCc2ccccc2)(c2ccc([N+](=O)[O-])cc2)[C@H]1c1ccc(CO)cc1", 0.222),
    ("CC(C)C[C@@H]1NC(=O)[C@H]2C[C@@H](C(=O)NCCCCCCNC(=O)CS)[C@@H](c3cccc(OCCO)c3)N2C1=O", 0.808),
]

Attention now shifts to the item below.
Report z-score, nothing else, for this compound: COc1ccc([Si](C)(C)[C@@H]2[C@@H](CCn3cc([C@H](O)c4ccccc4)nn3)O[C@]3(C(=O)N(Cc4ccc(N5C(=O)c6cccc7cccc5c67)cc4)c4ccccc43)[C@H]2C)cc1
-0.651
